- System: non-senescent control IMR90 ER:RAS cells
- test.description: Nuclei count (Hoechst, high content imaging) senolytic assay, OIS model, non-senescent control cells
- Assay type: cell-based, human
- protocol.conditions: Homo sapiens, IMR-90, 72 h, Control, log (dose) [M] -6.33, 72 h, mean n=3 (Fig 3C); read-out: Mean % Cell Survival
Counter-ions that a name gives are not always drawn.

{"molecule": "COc1cc(O)c2c(=O)cc(-c3ccc(OC)c(-c4c(O)cc(O)c5c(=O)cc(-c6ccc(O)cc6)oc45)c3)oc2c1 [Ginkgetin, ginkgetin]", "viability at 0.4677 µM (%)": 85.5}
{"molecule": "COC[C@H]1C[C@@H](c2nc(-c3ccc4c(c3)COc3cc5c(ccc6nc([C@@H]7CC[C@H](C)N7C(=O)[C@@H](NC(=O)OC)C(C)C)[nH]c65)cc3-4)c[nH]2)N(C(=O)[C@H](NC(=O)OC)c2ccccc2)C1 [Velpatasvir, velpatasvir, reference compound]", "viability at 0.4677 µM (%)": 86.1}
{"molecule": "Cc1c(-c2c(F)cc(C(N)=O)c3[nH]c4c(c23)CC[C@H](C(C)(C)O)C4)cccc1-n1c(=O)c2cccc(F)c2n(C)c1=O [BMS 986142]", "viability at 0.4677 µM (%)": 97.6}
{"molecule": "CC[C@]1(O)C[C@@H]2CN(CCc3c([nH]c4ccccc34)[C@@](C(=O)OC)(c3cc4c(cc3OC)N(C)[C@H]3[C@@](O)(C(=O)OC)[C@H](OC(C)=O)[C@]5(CC)C=CCN6CC[C@]43[C@@H]65)C2)C1 [Vinblastine sulfate, vinblastine sulfate, reference compound]", "viability at 0.4677 µM (%)": 76.9}
{"molecule": "CO[C@H]1C[C@@H]2CC[C@@H](C)[C@@](O)(O2)C(=O)C(=O)N2CCCC[C@H]2C(=O)O[C@H]([C@H](C)C[C@@H]2CC[C@@H](O)[C@H](OC)C2)CC(=O)[C@H](C)/C=C(\\C)[C@@H](O)[C@@H](OC)C(=O)[C@H](C)C[C@H](C)/C=C/C=C/C=C/1C [Rapamycin, rapamycin, reference compound]", "viability at 0.4677 µM (%)": 85.7}
{"molecule": "Cc1cc2c(C(C)C)c(O)c(O)c(C=O)c2c(O)c1-c1c(C)cc2c(C(C)C)c(O)c(O)c(C=O)c2c1O [Gossypol, gossypol]", "viability at 0.4677 µM (%)": 135}
{"molecule": "CO[C@H]1C[C@@H]2CC[C@@H](C)[C@@](O)(O2)C(=O)C(=O)N2CCCC[C@H]2C(=O)O[C@H]([C@H](C)C[C@@H]2CC[C@@H](OCCO)[C@H](OC)C2)CC(=O)[C@H](C)/C=C(\\C)[C@@H](O)[C@@H](OC)C(=O)[C@H](C)C[C@H](C)/C=C/C=C/C=C/1C [Everolimus, everolimus, reference compound]", "viability at 0.4677 µM (%)": 105}
{"molecule": "C[C@@H]1O[C@@H](O[C@H]2C[C@@H](O)[C@]3(CO)[C@H]4[C@H](O)C[C@]5(C)[C@@H](C6=CC(=O)OC6)CC[C@]5(O)[C@@H]4CC[C@]3(O)C2)[C@H](O)[C@H](O)[C@H]1O [Ouabain, ouabain, reference compound]", "viability at 0.4677 µM (%)": 29.6}
